Data provenance is ChEMBL document CHEMBL1135780.

molecular target: Sulfonylurea receptor 1, Kir6.2 (Homo sapiens, UniProt Q09428+Q14654); assay: Inhibition of [3H]glibenclamide binding to HEK293 cells co-expressing human Sulfonylurea receptor SUR1 and Inward rectifier K+ channel Kir6.2 at low affinity state with 2 mM MgATP; assay type: cell-based
Sequence (Q14654 whole entry): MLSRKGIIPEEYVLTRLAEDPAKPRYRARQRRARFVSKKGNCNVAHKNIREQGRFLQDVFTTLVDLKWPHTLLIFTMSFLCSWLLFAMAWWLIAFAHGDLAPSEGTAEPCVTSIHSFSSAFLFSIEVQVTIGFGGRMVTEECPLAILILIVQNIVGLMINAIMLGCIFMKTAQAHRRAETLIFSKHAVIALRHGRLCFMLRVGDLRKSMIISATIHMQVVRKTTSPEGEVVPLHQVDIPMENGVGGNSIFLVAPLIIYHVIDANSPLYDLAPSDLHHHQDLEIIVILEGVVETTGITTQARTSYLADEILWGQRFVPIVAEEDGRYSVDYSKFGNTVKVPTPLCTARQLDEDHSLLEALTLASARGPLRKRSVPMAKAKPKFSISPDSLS
Sequence (Q09428 whole entry): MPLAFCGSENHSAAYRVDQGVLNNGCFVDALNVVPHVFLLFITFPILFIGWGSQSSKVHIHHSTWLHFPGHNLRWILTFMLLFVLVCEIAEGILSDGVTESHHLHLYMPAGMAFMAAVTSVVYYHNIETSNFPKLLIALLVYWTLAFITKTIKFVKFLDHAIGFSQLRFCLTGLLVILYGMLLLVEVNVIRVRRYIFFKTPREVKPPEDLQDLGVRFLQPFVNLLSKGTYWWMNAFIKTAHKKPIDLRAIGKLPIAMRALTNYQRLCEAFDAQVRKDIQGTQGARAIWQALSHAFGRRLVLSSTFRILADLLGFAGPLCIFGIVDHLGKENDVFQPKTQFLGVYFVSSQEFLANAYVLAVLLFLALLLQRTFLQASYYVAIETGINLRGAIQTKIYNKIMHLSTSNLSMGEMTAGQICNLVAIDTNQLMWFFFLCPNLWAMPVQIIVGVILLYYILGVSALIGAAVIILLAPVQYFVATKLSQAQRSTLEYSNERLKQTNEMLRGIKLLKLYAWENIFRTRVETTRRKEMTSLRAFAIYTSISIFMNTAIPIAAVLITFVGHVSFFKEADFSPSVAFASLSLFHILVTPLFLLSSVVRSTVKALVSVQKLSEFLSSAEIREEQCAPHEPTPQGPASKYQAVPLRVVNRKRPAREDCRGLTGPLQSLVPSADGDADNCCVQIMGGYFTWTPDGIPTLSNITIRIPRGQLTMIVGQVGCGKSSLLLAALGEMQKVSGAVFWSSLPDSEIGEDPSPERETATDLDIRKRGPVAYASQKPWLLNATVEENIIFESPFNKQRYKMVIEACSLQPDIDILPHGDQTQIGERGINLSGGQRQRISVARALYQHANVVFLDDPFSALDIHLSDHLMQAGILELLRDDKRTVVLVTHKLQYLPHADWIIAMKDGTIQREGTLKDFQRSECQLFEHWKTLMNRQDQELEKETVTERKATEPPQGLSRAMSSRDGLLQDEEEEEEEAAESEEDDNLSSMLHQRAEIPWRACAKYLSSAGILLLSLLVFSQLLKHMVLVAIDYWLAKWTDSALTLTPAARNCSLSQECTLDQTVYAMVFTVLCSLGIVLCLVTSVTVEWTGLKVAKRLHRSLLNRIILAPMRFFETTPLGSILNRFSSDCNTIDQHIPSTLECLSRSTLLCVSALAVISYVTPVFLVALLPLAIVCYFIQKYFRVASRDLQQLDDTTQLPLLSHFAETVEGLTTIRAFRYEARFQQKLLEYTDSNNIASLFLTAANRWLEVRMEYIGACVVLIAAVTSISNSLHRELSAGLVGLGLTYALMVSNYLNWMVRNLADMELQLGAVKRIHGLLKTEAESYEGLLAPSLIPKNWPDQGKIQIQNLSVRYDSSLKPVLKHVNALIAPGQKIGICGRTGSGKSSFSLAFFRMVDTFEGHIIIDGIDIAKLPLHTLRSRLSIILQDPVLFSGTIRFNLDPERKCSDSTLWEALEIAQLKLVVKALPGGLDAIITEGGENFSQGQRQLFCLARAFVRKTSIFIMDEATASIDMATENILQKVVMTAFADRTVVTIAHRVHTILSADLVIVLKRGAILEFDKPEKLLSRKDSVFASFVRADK
property_label: IC50 (µM)
Give bare numbers, in µM.

{"columns": ["chemical_structure", "IC50, µM"],
 "data": [
  ["CC(C)NC1=NS(=O)(=O)c2sc(Cl)cc2N1", 187]
]}

Okay, here is my list. What is IC50 for each of these?
1. CC[C@@H](C)NC1=NS(=O)(=O)c2sc(Cl)cc2N1
2. CC1(NC2=NS(=O)(=O)c3sc(Cl)cc3N2)CCC1
3. CC(C)(C)NC1=NS(=O)(=O)c2sc(Cl)cc2N1
4. O=S1(=O)NC(NC2CCC2)=Nc2cc(Cl)sc21
5. CC[C@H](C)NC1=NS(=O)(=O)c2sc(Cl)cc2N1
6. CCC(C)(C)NC1=NS(=O)(=O)c2sc(Cl)cc2N1

1. 224
2. 10.8
3. 393
4. 146
5. 309
6. 375

Sample `CCCNC1=NS(=O)(=O)c2sc(Cl)cc2N1` ; IC50 observed: 584

----------
species: Rattus norvegicus; test: Reduction in plasma insulin in 30 min post-injection in rat; type: functional; design: concentration or dose not given beside the values
property_label: Reduction (%)
One number for each entry, in %.

{"columns": ["compound", "unit_string", "quantitative_result"],
 "data": [
  ["CCC(C)(C)NC1=NS(=O)(=O)c2sc(Cl)cc2N1", "%", 77],
  ["O=S1(=O)NC(NC2CCCC2)=Nc2cc(Cl)sc21", "%", 22],
  ["CC1(NC2=NS(=O)(=O)c3sc(Cl)cc3N2)CCC1", "%", 76]
]}

Okay, here is my list. What is Reduction for each of these?
1. CC1=Nc2ccc(Cl)cc2S(=O)(=O)N1 [DIAZOXIDE]
2. CC[C@@H](C)NC1=NS(=O)(=O)c2sc(Cl)cc2N1
3. CC(C)(C)NC1=NS(=O)(=O)c2sc(Cl)cc2N1
4. O=S1(=O)NC(NC2CCC2)=Nc2cc(Cl)sc21
5. CC(C)NC1=NS(=O)(=O)c2sc(Cl)cc2N1
6. CCCNC1=NS(=O)(=O)c2sc(Cl)cc2N1

1: 53; 2: 94; 3: 71; 4: 100; 5: 96; 6: 16

Okay, here is my list. What is Reduction for each of these?
1. CC1(NC2=NS(=O)(=O)c3sc(Cl)cc3N2)CC1 [TIFENAZOXIDE]
2. CC[C@H](C)NC1=NS(=O)(=O)c2sc(Cl)cc2N1

1: 77; 2: 94

----------
Please provide measured Reduction for the entries that follow.
species on record: Rattus norvegicus; test: Maximum reduction in plasma insulin in rat; assay type: functional
Numbers only, in %.

Worked cases, Reduction given:
{"columns": ["compound", "unit_string", "quantitative_result"],
 "data": [
  ["CC[C@@H](C)NC1=NS(=O)(=O)c2sc(Cl)cc2N1", "%", 97],
  ["CC(C)NC1=NS(=O)(=O)c2sc(Cl)cc2N1", "%", 96],
  ["CC1(NC2=NS(=O)(=O)c3sc(Cl)cc3N2)CCC1", "%", 82]
]}

Okay, here is my list. What is Reduction for each of these?
1. CC[C@H](C)NC1=NS(=O)(=O)c2sc(Cl)cc2N1
2. CC1=Nc2ccc(Cl)cc2S(=O)(=O)N1 [DIAZOXIDE]
3. CCCNC1=NS(=O)(=O)c2sc(Cl)cc2N1
4. CC1(NC2=NS(=O)(=O)c3sc(Cl)cc3N2)CC1 [TIFENAZOXIDE]
5. CCC(C)(C)NC1=NS(=O)(=O)c2sc(Cl)cc2N1
6. CC(C)(C)NC1=NS(=O)(=O)c2sc(Cl)cc2N1

1. 96
2. 53
3. 100
4. 85
5. 87
6. 85

Okay, here is my list. What is Reduction for each of these?
1. O=S1(=O)NC(NC2CCC2)=Nc2cc(Cl)sc21
2. O=S1(=O)NC(NC2CCCC2)=Nc2cc(Cl)sc21

100
99
